# Lookup of reported Activity keyed by entry
- Experiment: Induction of NO release in PBS buffer at pH 7.4 incubated for 1 hr
- Type: physicochemical
- Set-up: concentration or dose not given beside the values
- Run Conditions: pH 7.4, 1 h

- Structure Notation: "CCN(CC)/[N+]([O-])=N\\OCOC(=O)[C@@H](Cc1ccccc1)NC(=O)[C@H]1CC[C@H](C(C)C)CC1"
  Result: "4.4%"
- Structure Notation: "CC(C)[C@H]1CC[C@H](C(=O)N[C@H](Cc2ccccc2)C(=O)OCO/N=[N+](/[O-])N2CCCC2)CC1"
  Result: "6.7%"
- Structure Notation: "COc1ccc(Cl)cc1C(=O)NCCc1ccc(C(=O)OCO/N=[N+](\\[O-])N2CCCC2)cc1"
  Result: "5.1%"
- Structure Notation: "CCN(CC)/[N+]([O-])=N/OCOC(=O)c1ccc(CCNC(=O)c2cc(Cl)ccc2OC)cc1"
  Result: "4.2%"
- Structure Notation: "CC(C)[C@H]1CC[C@H](C(=O)N[C@H](Cc2ccccc2)C(=O)OCCO[N+](=O)[O-])CC1"
  Result: "6.7%"

Next up:
Record `COc1ccc(Cl)cc1C(=O)NCCc1ccc(C(=O)OCCO[N+](=O)[O-])cc1` , field Activity: 4.1%
